Data provenance: PubChem BioAssay (NCI)

Tested on: SK-MEL-5 melanoma
Test: NCI tumour cell line growth inhibition, 48 h
# Lookup of reported TGI keyed by entry

- Molecule: "C=CCNC(=O)CN(CC(=O)O)C1CCCCC1N(CC(=O)O)CC(=O)O (stereo unspecified)"
  TGI: "> 100 µM"
- Molecule: "S=C(NCc1ccc2c(c1)OCO2)N1CCN(c2ncnc3c2oc2ccccc23)CC1"
  TGI: "3.28 µM"
- Molecule: "O=C(CC(=O)c1ccccc1)C(=O)Nc1ccc(Cl)cc1"
  TGI: "> 100 µM"
- Molecule: "N#C/C(=C\\c1cc2ccc(N3CCC3)cc2oc1=O)C(=O)N(CC(=O)O)CC(=O)O"
  TGI: "> 100 µM"
- Molecule: "Cc1cc2c(c(=O)o1)C1=S(SC(c3ccccc3)=C1)S2 (stereo unspecified)"
  TGI: "> 100 µM"

Attention now turns to another entry.
Reported TGI ( COC(=O)CCC(NC(=S)N/N=C(\C)c1cnccn1)C(=O)OC (stereo unspecified) ) = > 100 µM
